parameter-measured: melting point

COc1cc2c(Nc3ccc4cn[nH]c4c3)c(C#N)cnc2cc1OCCN1CCc2ccccc2C1 :: 170 to 173 °C
Cc1nc(N2CCN(CC3CC3(F)F)C2=O)sc1C(=O)O (stereo not given) :: 210 to 215 °C
CCOC(=O)c1ccc(-n2cnnc2S)cc1 :: 194 to 196 °C
C[C@H](NC(=O)OCC1c2ccccc2-c2ccccc21)C(=O)N1[C@H](C)C(=O)OC[C@@H]1c1ccccc1 :: 87 to 88 °C
CCOC(=O)CCCNCc1nn2c(-c3ccc(OC)cc3)nnc2c2ccccc12 :: 103 to 105 °C

melting point measured on COc1cc2nc(N)nc(-c3cc(I)c(O)c(I)c3)c2cc1OC = 259 to 260 °C

melting point measured on CC1C(=O)C2CC(=O)N2C1C(=O)OC(c1ccccc1)c1ccccc1 (stereo not given) = 132 to 133 °C

melting point measured on CC(C)=CCCOc1c(-c2ccc(S(C)(=O)=O)cc2)cnn(-c2ccc(F)cc2)c1=O = 111 to 114 °C

###

The entries below are paired with their reported melting point.

CC(=O)Nc1ccc(C(C)=C(Cl)Cl)cc1[N+](=O)[O-] :: 139 to 141 °C

melting point measured on COc1ccc(/C=C/C(=O)N(C)CC(O)CO)cc1 (stereo unspecified) = 81 to 83 °C

melting point measured on COc1ccc(C(=O)Nc2ccccc2C(O)c2ccccn2)cc1 (stereo unspecified) = 128 °C

melting point measured on CC(C)N(CCC(C(N)=O)(c1ccc(O)cc1)c1ccccn1)C(C)C (stereo unspecified) = 148 to 151 °C

melting point measured on COC(=O)CCc1ccc(Sc2ccccc2C(=O)O)c([N+](=O)[O-])c1 = 160 to 161 °C

melting point measured on CS(=O)(=O)c1ccc(-c2cnn(CC(F)(F)F)c(=O)c2Cl)cc1 = 221 to 222 °C

###

parameter-measured: melting point

COCC(COC)Oc1ccc(C#CC2(O)CN3CCC2CC3)cc1 (centres undefined) :: 125 to 127 °C
SCc1cn(C(c2ccccc2)(c2ccccc2)c2ccccc2)nn1 :: 140 to 141 °C
CCOC(=O)C1(C(=O)OCC)CCC2(NCCc3cc(OC)c(OC)cc32)C(C2c3cc(OC)c(OC)cc3CCN2CC)C1 (centres undefined) :: 146 to 147 °C
CC(C)n1nc(C#Cc2ccccc2F)ccc1=O :: 84.5 to 86 °C
CC1N=C(c2ccccc2Cl)c2cc([N+](=O)[O-])ccc2NC1=S (single isomer, unassigned; (+)) :: 258 to 260 °C
COc1cc(S(C)(=O)=O)ccc1-c1ccc(C#N)c(=O)[nH]1 :: 280 to 282 °C

melting point measured on O=c1nc(N2CCc3ccccc32)sc2ncccc12 = 249 to 250 °C

melting point measured on CC[C@@H]1O[C@](C#CC2CC2)(C(F)(F)F)c2c(ccc3c2OCO3)NC1=O (relative stereo) = 201 to 202 °C

melting point measured on O=C(O)c1ccc(-c2ccc3cc(OCc4ccccc4)c(C45CC6CC(CC(C6)C4)C5)cc3c2)cc1 = 305 to 310 °C

###

The entries below are paired with their reported melting point.

CN(CCCCCNC(=NCCSCc1csc(NC(=N)N)n1)NC#N)CCN(Cc1ccc(F)cc1)c1ccccn1 :: 103 °C
COc1cncnc1N1CCN(CCCc2csc3ccc(C(N)=O)cc23)CC1 :: 169 to 170 °C
CC(=O)OCc1ccc(N(c2ccccc2)c2ccc(C=O)cc2)cc1 :: 86 to 89 °C

melting point measured on CC(=O)c1ccc(C2=NC[C@@H](OC(=O)Nc3ccccc3)[C@H](c3ccccc3)O2)cc1 (racemic) = 168 °C

melting point measured on N#CSc1nc(Cl)ncc1I = 185 to 186 °C

melting point measured on COc1ccc2c(-c3ccccc3F)csc2c1Cl = 136 to 137 °C

melting point measured on CN(C)c1ccc(C(=C2SCCCS2)c2ccccc2)cc1 = 172 to 174 °C
